Let's look at some compounds and their measured selectivity ratio.
assay: Selectivity index, ratio of IC50 for rat L6 cells to IC50 for Trypanosoma brucei rhodesiense STIB900; type: toxicity, cell-based; conditions: L6 cells versus Trypanosoma brucei rhodesiense STIB900, read-out: Ratio IC50
recorded endpoint: selectivity ratio

INSERT INTO measurements (smiles_str, recorded_endpoint, readout_number) VALUES
  ('Cl.N=C(N)c1ccc(-c2ccc(-c3ccc(C(=N)N)s3)o2)cc1', 'selectivity ratio', 1820),
  ('Cl.N=C(N)c1ccc(-c2ccc(-c3ccc(C(=N)N)s3)s2)cn1', 'selectivity ratio', 1000),
  ('Cl.N=C(N)c1ccc(-c2ccc(-c3ccc(C(=N)N)o3)o2)cn1', 'selectivity ratio', 6420),
  ('Cl.N=C(N)c1ccc(C#Cc2ccc(-c3ccc(C(=N)N)o3)o2)cc1', 'selectivity ratio', 1500),
  ('Cl.N=C(N)c1ccc(-c2ccc(-c3ccc(C(=N)N)o3)s2)cc1', 'selectivity ratio', 14900),
  ('Cl.N=C(N)c1ccc(-c2ccc(-c3ccc(C(=N)N)o3)o2)cc1', 'selectivity ratio', 3150),
  ('Cl.N=C(N)c1ccc(-c2ccc(-c3ccc(C(=N)N)s3)s2)cc1', 'selectivity ratio', 3000);

====

assay: Selectivity index, ratio of IC50 for rat L6 cells to IC50 for Plasmodium falciparum K1; format: toxicity, cell-based; details: L6 cells versus Plasmodium falciparum K1, read-out: Ratio IC50
recorded endpoint: selectivity ratio

INSERT INTO results (smiles_str, recorded_endpoint, readout_number) VALUES
  ('Cl.N=C(N)c1ccc(-c2ccc(-c3ccc(C(=N)N)s3)o2)cc1', 'selectivity ratio', 626),
  ('Cl.N=C(N)c1ccc(-c2ccc(-c3ccc(C(=N)N)o3)o2)cn1', 'selectivity ratio', 38500),
  ('Cl.N=C(N)c1ccc(-c2ccc(-c3ccc(C(=N)N)s3)s2)cc1', 'selectivity ratio', 576),
  ('Cl.N=C(N)c1ccc(-c2ccc(-c3ccc(C(=N)N)o3)s2)cc1', 'selectivity ratio', 32600),
  ('Cl.N=C(N)c1ccc(-c2ccc(-c3ccc(C(=N)N)o3)o2)cc1', 'selectivity ratio', 910),
  ('Cl.N=C(N)c1ccc(C#Cc2ccc(-c3ccc(C(=N)N)o3)o2)cc1', 'selectivity ratio', 4470),
  ('Cl.N=C(N)c1ccc(-c2ccc(-c3ccc(C(=N)N)s3)s2)cn1', 'selectivity ratio', 1740);

====

Measured ΔTm on Nucleic Acid follows.
recorded endpoint: ΔTm (°C)

INSERT INTO assay_data (smiles_str, unit_tag, readout_number) VALUES
  ('Cl.N=C(N)c1ccc(-c2ccc(-c3ccc(C(=N)N)s3)s2)cn1', '°C', 16.6),
  ('Cl.N=C(N)c1ccc(-c2ccc(-c3ccc(C(=N)N)s3)o2)cc1', '°C', 14.1),
  ('Cl.N=C(N)c1ccc(-c2ccc(-c3ccc(C(=N)N)s3)s2)cc1', '°C', 18.1),
  ('Cl.N=C(N)c1ccc(-c2ccc(-c3ccc(C(=N)N)o3)o2)cn1', '°C', 5.5),
  ('Cl.N=C(N)c1ccc(-c2ccc(-c3ccc(C(=N)N)o3)s2)cc1', '°C', 13.1),
  ('Cl.N=C(N)c1ccc(C#Cc2ccc(-c3ccc(C(=N)N)o3)o2)cc1', '°C', 4),
  ('Cl.N=C(N)c1ccc(-c2ccc(-c3ccc(C(=N)N)o3)o2)cc1', '°C', 8.5);
